Target: human m1 muscarinic receptor (Homo sapiens, UniProt P11229)
Sequence (P11229 whole entry): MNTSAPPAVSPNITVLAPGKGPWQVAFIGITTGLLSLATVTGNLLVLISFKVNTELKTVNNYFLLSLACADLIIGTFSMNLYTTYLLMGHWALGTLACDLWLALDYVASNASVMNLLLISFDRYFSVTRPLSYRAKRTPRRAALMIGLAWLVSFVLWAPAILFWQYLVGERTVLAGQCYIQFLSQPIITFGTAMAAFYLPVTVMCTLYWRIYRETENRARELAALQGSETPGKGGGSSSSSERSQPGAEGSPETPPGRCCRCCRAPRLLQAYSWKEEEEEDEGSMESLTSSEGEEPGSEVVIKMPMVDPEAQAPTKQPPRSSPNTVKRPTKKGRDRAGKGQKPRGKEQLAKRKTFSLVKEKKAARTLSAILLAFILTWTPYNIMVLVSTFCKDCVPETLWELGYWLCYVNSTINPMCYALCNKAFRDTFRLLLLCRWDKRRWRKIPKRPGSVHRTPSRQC
Assay: biochemical
Format: binding
Property Label: Ki (µM)

>>> quantitative_result("Nc1ccccc1C(=O)N1CCC(N2CCC(Cc3ccc(S(=O)(=O)c4cccc(Cl)c4)cc3)CC2)CC1 [Example 7A]")
0.658

###

Molecular target: human m4 muscarinic receptor (Homo sapiens)
Sequence (P08173 whole entry): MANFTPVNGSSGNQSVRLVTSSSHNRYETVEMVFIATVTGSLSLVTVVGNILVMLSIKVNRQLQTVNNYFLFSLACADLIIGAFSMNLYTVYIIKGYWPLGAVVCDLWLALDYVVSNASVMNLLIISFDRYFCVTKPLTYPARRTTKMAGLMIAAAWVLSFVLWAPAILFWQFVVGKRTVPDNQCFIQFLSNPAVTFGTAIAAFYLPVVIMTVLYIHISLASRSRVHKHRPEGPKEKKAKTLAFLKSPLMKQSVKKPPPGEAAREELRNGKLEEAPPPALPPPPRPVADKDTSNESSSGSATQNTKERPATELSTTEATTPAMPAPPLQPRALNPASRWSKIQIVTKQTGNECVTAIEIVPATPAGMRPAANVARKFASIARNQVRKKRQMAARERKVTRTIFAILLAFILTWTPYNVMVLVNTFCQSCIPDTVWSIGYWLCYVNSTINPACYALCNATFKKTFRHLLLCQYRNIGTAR
Assay: biochemical
Format: binding
Settings: membranes from stably transfected CHO cell lines, 3H-QNB; read-out: m4 Ki
Property Label: Ki (nM)

>>> quantitative_result("Cc1cccc(C(=O)N2CCC(N3CCC(Cc4ccc(S(=O)(=O)c5cccc(Cl)c5)cc4)CC3)CC2)c1N [Example 7]")
61.4

Source listed as patent EP1214299B1.
